- Tested on: Enterococcus faecalis
- measurement_notes: Antimicrobial activity against Enterococcus faecalis ATCC 29212 assessed as growth inhibition at =<64 ug/ml incubated overnight at 37degC by visual and photometry based method
- Assay type: functional
Calls of active or inactive are those of the source. No cut-off for these calls is given here.

given_smiles: CC(C)(C)c1cc(Cn2cc(C(=O)N3CCNCC3)nn2)cc(C(C)(C)C)c1.Cl
growth inhibition (GI): inactive
--
given_smiles: CCCCCCCOc1ccc(-n2cc(C(=O)NCCN)nn2)cc1.Cl
growth inhibition (GI): inactive
--
given_smiles: CC(C)(C)c1cc(Cn2cc(C(=O)NCCN)nn2)cc(C(C)(C)C)c1.Cl
growth inhibition (GI): inactive
--
given_smiles: CC(C)(C)c1cc(Cn2cc(C(=O)N3CCN(C(=N)N)CC3)nn2)cc(C(C)(C)C)c1.Cl
growth inhibition (GI): inactive

---

- Test system: HepG2
- measurement_notes: Cytotoxicity against human HepG2 cells incubated for 24 hrs by CellTiter 96 aqueous one solution reagent based assay
- Assay type: cell-based
- condition_context: HepG2, 24 h
Rule for this label: 1.0 means EC50 is less than 3 µg/mL; 0.0 means EC50 is at least 3 µg/mL.

Reference set (6 entries):
given_smiles: C/C(=N\NC(=N)N)c1cn(Cc2cc(C(C)(C)C)cc(C(C)(C)C)c2)nn1.Cl
target_system: HepG2
label: 1.0
--
given_smiles: CC(C)(C)c1cc(-n2cc(C(=O)NCCN)nn2)cc(C(C)(C)C)c1.Cl
target_system: HepG2
label: 0.0
--
given_smiles: CC(C)(C)c1cc(COc2ccc(-n3cc(C(=O)NCCNC(=N)N)nn3)cc2)cc(C(C)(C)C)c1.Cl
target_system: HepG2
label: 0.0
--
given_smiles: CCCCCCCOc1ccc(-n2cc(C(=O)NCCNC(=N)N)nn2)cc1.Cl
target_system: HepG2
label: 0.0
--
given_smiles: CCCCCCCOc1ccc(-n2cc(/C(C)=N/NC(=N)N)nn2)cc1.O=C(O)C(F)(F)F
target_system: HepG2
label: 1.0
--
given_smiles: CCCCCCCOc1ccc(-n2cc(C(=O)NCCN)nn2)cc1.Cl
target_system: HepG2
label: 0.0

hey, is EC50 for C/C(=N\NC(=N)N)c1cn(-c2cc(C(C)(C)C)cc(C(C)(C)C)c2)nn1.O=C(O)C(F)(F)F lower than 3 µg/mL or not?
1.0

Field entry: CC(C)(C)c1cc(-n2cc(C(=O)NCCNC(=N)N)nn2)cc(C(C)(C)C)c1.Cl
0.0

Field entry: CC(C)(C)c1cc(COc2ccc(-n3cc(C(=O)NCCN)nn3)cc2)cc(C(C)(C)C)c1.Cl
1.0

Field entry: C/C(=N\NC(=N)N)c1cn(-c2ccc(OCc3cc(C(C)(C)C)cc(C(C)(C)C)c3)cc2)nn1.Cl
1.0

---

- measurement_notes: Selectivity index, ratio of EC50 for human HepG2 cells to MIC for Streptococcus agalactiae ATCC 12386
- Assay type: toxicity
- condition_context: read-out: Selectivity Index
attribute_measured: selectivity ratio
Answers are plain numbers.

given_smiles: C/C(=N\NC(=N)N)c1cn(Cc2cc(C(C)(C)C)cc(C(C)(C)C)c2)nn1.Cl
selectivity ratio: 0.57

given_smiles: CC(C)(C)c1cc(-n2cc(C(=O)NCCNC(=N)N)nn2)cc(C(C)(C)C)c1.Cl
selectivity ratio: 3.91

given_smiles: C/C(=N\NC(=N)N)c1cn(-c2ccc(OCc3cc(C(C)(C)C)cc(C(C)(C)C)c3)cc2)nn1.Cl
selectivity ratio: 3.86

given_smiles: CC(C)(C)c1cc(COc2ccc(-n3cc(C(=O)NCCN)nn3)cc2)cc(C(C)(C)C)c1.Cl
selectivity ratio: 1.44

given_smiles: CC(C)(C)c1cc(-n2cc(C(=O)NCCN)nn2)cc(C(C)(C)C)c1.Cl
selectivity ratio: 0.5

Below are some compounds; for each one, tell me its selectivity ratio.
1. CC(C)(C)c1cc(COc2ccc(-n3cc(C(=O)NCCNC(=N)N)nn3)cc2)cc(C(C)(C)C)c1.Cl
2. CCCCCCCOc1ccc(-n2cc(/C(C)=N/NC(=N)N)nn2)cc1.O=C(O)C(F)(F)F
3. C/C(=N\NC(=N)N)c1cn(-c2cc(C(C)(C)C)cc(C(C)(C)C)c2)nn1.O=C(O)C(F)(F)F
4. CCCCCCCOc1ccc(-n2cc(C(=O)NCCNC(=N)N)nn2)cc1.Cl
5. CCCCCCCOc1ccc(-n2cc(C(=O)NCCN)nn2)cc1.Cl

[4.04, 0.25, 1.32, 2.97, 0.44]

Where these numbers come from: ChEMBL document CHEMBL4043163
